TARGET_OF_ASSAY: CDK9/Cyclin K (Homo sapiens, UniProt P50750)
Sequence (P50750 whole entry): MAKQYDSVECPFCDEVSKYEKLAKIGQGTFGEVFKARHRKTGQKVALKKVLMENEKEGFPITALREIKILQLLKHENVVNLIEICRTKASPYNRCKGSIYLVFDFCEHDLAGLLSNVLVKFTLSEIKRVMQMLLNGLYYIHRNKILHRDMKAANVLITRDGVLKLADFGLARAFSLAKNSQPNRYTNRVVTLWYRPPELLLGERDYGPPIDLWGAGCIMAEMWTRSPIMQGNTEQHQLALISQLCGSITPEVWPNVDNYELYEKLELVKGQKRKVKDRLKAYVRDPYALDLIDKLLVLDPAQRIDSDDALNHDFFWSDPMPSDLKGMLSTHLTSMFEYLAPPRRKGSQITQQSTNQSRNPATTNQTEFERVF
Sequence (O75909 whole entry, further chain): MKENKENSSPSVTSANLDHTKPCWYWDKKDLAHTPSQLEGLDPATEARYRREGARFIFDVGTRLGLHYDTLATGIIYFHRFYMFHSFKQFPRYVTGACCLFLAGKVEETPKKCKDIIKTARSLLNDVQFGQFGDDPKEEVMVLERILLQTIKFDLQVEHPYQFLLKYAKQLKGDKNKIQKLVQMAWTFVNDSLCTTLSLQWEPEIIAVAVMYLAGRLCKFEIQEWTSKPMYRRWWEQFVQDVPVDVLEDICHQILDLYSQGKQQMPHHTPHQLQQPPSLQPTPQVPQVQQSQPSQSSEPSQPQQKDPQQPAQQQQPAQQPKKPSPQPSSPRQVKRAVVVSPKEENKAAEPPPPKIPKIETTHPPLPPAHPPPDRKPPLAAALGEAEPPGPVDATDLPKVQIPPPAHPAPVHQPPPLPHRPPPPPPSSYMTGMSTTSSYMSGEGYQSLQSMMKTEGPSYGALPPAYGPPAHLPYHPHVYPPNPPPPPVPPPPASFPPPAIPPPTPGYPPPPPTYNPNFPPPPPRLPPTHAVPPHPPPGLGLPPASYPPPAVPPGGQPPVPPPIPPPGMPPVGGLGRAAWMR
TEST_PROTOCOL: Inhibition of CDK9/Cyclin K (unknown origin) using PDKtide as substrate incubated at 37 degreeC for 1 hr followed by incubation at room temperature for 5 mins by ADP-Glo reagent based luminescence assay
Format: protein-complex assay
QUANTITY_NAME: pIC50
Answers are plain numbers, as −log10 of the molar value.

CHEMICAL_STRING	TARGET_OF_ASSAY	pIC50
COCCN[C@H]1CC[C@H](Nc2cc(-c3csc(NCC4CCOCC4)n3)ccn2)CC1	CDK9/Cyclin K (Homo sapiens, UniProt P50750)	6.94
O=C(N[C@H]1CC[C@H](Nc2cc(-c3csc(NCC4CCOCC4)n3)c(Cl)cn2)CC1)C1CC1	CDK9/Cyclin K (Homo sapiens, UniProt P50750)	6.82
COCCNc1cc(-c2csc(NCC3CCOCC3)n2)c(Cl)cn1	CDK9/Cyclin K (Homo sapiens, UniProt P50750)	5.98

# batch size: 5; output pIC50 per entry
1. COC[C@@H](C)N[C@H]1CC[C@H](Nc2cc(-c3csc(NCC4CCOCC4)n3)c(Cl)cn2)CC1
2. Clc1cnc(Nc2ccccc2)cc1-c1csc(NCC2CCOCC2)n1
3. COCCN[C@H]1CC[C@H](Nc2cc(-c3csc(NCc4ccccc4)n3)c(Cl)cn2)CC1
4. Fc1cc(-c2csc(NCC3CCOCC3)n2)c(Cl)cn1
5. COCCN[C@H]1CC[C@H](Oc2cc(-c3csc(NCC4CCOCC4)n3)c(Cl)cn2)CC1

[6.13, 6.62, 7.85, 6.25, 5.78]

Data credit: ChEMBL document CHEMBL4261600
